- Measured target: Polyunsaturated fatty acid 5-lipoxygenase (Rattus norvegicus)
- Method summary: Concentration that produces 50% inhibition of A-23187-stimulated radiolabeled 5-HETE and TXB2 synthesis by PMN 5-lipoxygenase
- Type: functional
Result type: pIC50
// returns pIC50 (minus log10 of molar concentration), number only

**Query** Provide measured pIC50 value, entry: c1cc(Cc2nnn[nH]2)cc(OCc2ccc3ccccc3n2)c1
**Result** 5.41

====

- Measured target: Polyunsaturated fatty acid 5-lipoxygenase (Rattus norvegicus, UniProt P12527)
- Sequence (P12527 whole entry): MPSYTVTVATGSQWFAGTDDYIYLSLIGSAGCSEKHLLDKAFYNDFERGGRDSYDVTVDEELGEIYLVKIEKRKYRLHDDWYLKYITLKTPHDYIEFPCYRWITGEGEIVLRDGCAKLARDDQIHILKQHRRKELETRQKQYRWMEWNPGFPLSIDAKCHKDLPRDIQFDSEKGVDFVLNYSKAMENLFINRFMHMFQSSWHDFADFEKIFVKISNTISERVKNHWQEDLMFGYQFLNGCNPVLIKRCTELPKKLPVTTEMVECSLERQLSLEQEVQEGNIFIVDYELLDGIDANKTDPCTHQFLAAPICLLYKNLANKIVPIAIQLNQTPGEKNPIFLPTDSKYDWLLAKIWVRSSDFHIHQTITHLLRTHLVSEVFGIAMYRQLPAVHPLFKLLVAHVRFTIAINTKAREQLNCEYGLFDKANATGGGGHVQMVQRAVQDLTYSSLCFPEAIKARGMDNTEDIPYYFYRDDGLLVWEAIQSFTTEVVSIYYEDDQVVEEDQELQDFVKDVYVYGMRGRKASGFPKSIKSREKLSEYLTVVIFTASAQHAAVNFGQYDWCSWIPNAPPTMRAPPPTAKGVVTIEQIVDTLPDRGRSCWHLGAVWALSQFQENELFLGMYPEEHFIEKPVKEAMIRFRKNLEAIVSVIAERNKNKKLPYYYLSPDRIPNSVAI
- Method summary: Concentration that produces 50% inhibition of A-23187-stimulated radiolabeled 5-HETE and TXB2 synthesis by PMN 5-lipoxygenase.
Result type: pIC50
// returns pIC50 (minus log10 of molar concentration), number only

**Query** Provide measured pIC50 value, entry: Cc1ccc(S(=O)(=O)NC(=O)c2cccc(OCc3ccc4ccccc4n3)c2)cc1
**Result** 5.21
